# EC50 annotations
molecular target: PPARα (Homo sapiens, UniProt Q07869); assay: Transfection assay, GAL4-PPARα LBD luciferase reporter in HEK293 cells; details: 18-24 hrs
Sequence (Q07869 239-466 limits assumed, species assumed): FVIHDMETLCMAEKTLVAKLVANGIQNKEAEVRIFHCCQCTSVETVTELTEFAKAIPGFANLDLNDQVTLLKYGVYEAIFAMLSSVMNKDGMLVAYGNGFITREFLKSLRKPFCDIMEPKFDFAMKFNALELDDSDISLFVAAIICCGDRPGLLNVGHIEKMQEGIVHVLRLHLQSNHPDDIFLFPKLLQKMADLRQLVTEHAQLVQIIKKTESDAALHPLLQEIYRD
REPORTED ENDPOINT: EC50

molecule=O=C(O)COc1ccc2c(c1)CCN(Cc1cc(-c3ccc(C(F)(F)F)cc3)on1)CC2 target_under_test="PPARα (Homo sapiens, UniProt Q07869)" reported_endpoint=EC50 test_result="> 1 µM"
molecule=O=C(O)COc1ccc2c(c1)CCN(Cc1ccc(-c3ccc(Cl)cc3)o1)CC2 target_under_test="PPARα (Homo sapiens, UniProt Q07869)" reported_endpoint=EC50 test_result="> 3 µM"
molecule=O=C(O)COc1ccc2c(c1)CCN(Cc1ccc(-c3ccc(OC(F)(F)F)cc3)o1)CC2 target_under_test="PPARα (Homo sapiens, UniProt Q07869)" reported_endpoint=EC50 test_result="> 3 µM"
molecule="CC(c1ccc(-c2ccc(C(F)(F)F)cc2)o1)N1CCc2ccc(OCC(=O)O)cc2CC1 (single isomer, unassigned) [28a]" target_under_test="PPARα (Homo sapiens, UniProt Q07869)" reported_endpoint=EC50 test_result="> 3 µM"
molecule=O=C(O)COc1ccc2c(c1)CCN(Cc1ccc(-c3ccc(C(F)(F)F)cc3)o1)CC2 target_under_test="PPARα (Homo sapiens, UniProt Q07869)" reported_endpoint=EC50 test_result="> 3 µM"
molecule=Cc1nc(-c2ccc(C(F)(F)F)cc2)oc1CN1CCc2ccc(OC(C)(C)C(=O)O)cc2CC1 target_under_test="PPARα (Homo sapiens, UniProt Q07869)" reported_endpoint=EC50 test_result="> 3 µM"
molecule=O=C(O)COc1ccc2c(c1)CCN(Cc1ccnc(-c3ccc(C(F)(F)F)cc3)n1)CC2 target_under_test="PPARα (Homo sapiens, UniProt Q07869)" reported_endpoint=EC50 test_result="> 3 µM"
molecule=O=C(O)COc1ccc2c(c1)CCN(Cc1ccc(-c3ccc(Cl)cc3Cl)s1)CC2 target_under_test="PPARα (Homo sapiens, UniProt Q07869)" reported_endpoint=EC50 test_result="> 3 µM"
molecule=O=C(O)COc1ccc2c(c1)CCN(Cc1ccc(-c3ccc(Cl)cc3Cl)o1)CC2 target_under_test="PPARα (Homo sapiens, UniProt Q07869)" reported_endpoint=EC50 test_result="> 3 µM"
molecule=O=C(O)COc1ccc2c(c1)CCN(Cc1ccc(-c3ccc(C(F)(F)F)cc3)s1)CC2 target_under_test="PPARα (Homo sapiens, UniProt Q07869)" reported_endpoint=EC50 test_result="> 3 µM"
molecule=Cc1cc(-c2ccc(C(F)(F)F)cc2)sc1CN1CCc2ccc(OCC(=O)O)cc2CC1 target_under_test="PPARα (Homo sapiens, UniProt Q07869)" reported_endpoint=EC50 test_result="> 3 µM"
molecule=CC(C)(Oc1ccc2c(c1)CCN(Cc1cc(-c3ccc(C(F)(F)F)cc3)on1)CC2)C(=O)O target_under_test="PPARα (Homo sapiens, UniProt Q07869)" reported_endpoint=EC50 test_result="> 1 µM"
